- assayProcedure: yeast display, Sf9 membrane polyspecificity reagent, FACS + sequencing; frameworks hold sequencing errors

[
  {
    "chainSequence": "QVQLVESGGGLVQAGGSLRLSCAASGSILNNYAMGWYRQAPGKERELVAAISSSGGTNYADSVKGRFTISRDNAKNTVYLQMYSLKPEDTAVYYCNADVLDGGYDYWGQGTQVTVSS",
    "polyreactivity (PSR sort gate)": "low polyreactivity"
  },
  {
    "chainSequence": "QVQLVESGGGLVQAGGSLRLSCAASGSTFYYYTMGWYRQAPGKEREFVADITNRGGSTYYADSVKGRFTISRDNAKNTVYLQMNSLKPEDTAVYYCAARFSPWYWAGDYDYWGQGTQVTVSS",
    "polyreactivity (PSR sort gate)": "high polyreactivity"
  },
  {
    "chainSequence": "QVQLVESGGGVVQAGGSLRLSCAASGSIFYYYAMGWYRQAPGKERELVASITHTGGSTNYADSVKGRFTISRDNAKNTVYLQKNSLKPEDTAVYYCAAEYWNDNYSDPLYDYWGQGTQVTVSS",
    "polyreactivity (PSR sort gate)": "low polyreactivity"
  },
  {
    "chainSequence": "QVQLVESGGGLVQAGGSLRLSCAASGFSFDSYALGWYRKAPGKERELVAAISRSGGSTYYADSVKGRFTISRDNAKNTVYLQMNSLKPEDTAVYYCARDRDSWGGHDSWGQGTQVTVSS",
    "polyreactivity (PSR sort gate)": "high polyreactivity"
  },
  {
    "chainSequence": "QVQLVESGGGLVQAGGSLRLSCAASGFIFSLYAMGWYRQAPGKERELVAAITRSGGSTYYADSVKGRFTISRDNAKNTVYLQMNSLKPEDTAVYYCAASRGRGGYGFDYWGQGTQVTVSS",
    "polyreactivity (PSR sort gate)": "high polyreactivity"
  }
]

---

- assayProcedure: yeast display, Sf9 membrane polyspecificity reagent, FACS + sequencing; frameworks hold sequencing errors
propertyName: polyreactivity (PSR sort gate)

[
  {
    "chainSequence": "QVQLQESGGGLVQARGSLRLSCAASGSISRYYDMGWYRQAPCKESEFVAGISGGAITYYADSVKGRFTISRDNAKNTVYLQMNSLKPEDTAVYYCAADTGVYKYHSYWGQVTQVTVSS",
    "observed": "low polyreactivity"
  },
  {
    "chainSequence": "QVQLVESGGGLVQAGGSLRLSCAASGGTFGSYAMGWYRQAPGKERELVAAIDYSGADTYYADSVKGRFTISRDNAKNTVFLQMNSLKPEDTAVYYCNAEFESGHDLDWYDYWGQGTQVTVSS",
    "observed": "low polyreactivity"
  },
  {
    "chainSequence": "QVQLVESGGGLVQAGGSLRLSCAASGIIFLSYAMGWYRQAPGKERELVAAIRSRGDSTYYADSVKGRFTISRDNAKNTVYLQMNSLKAEDTAVYYCNARQRRYPYGYWGQGTQVTVSS",
    "observed": "high polyreactivity"
  },
  {
    "chainSequence": "QVQLVESGGGLVQAGGSLRLSCAASGFTFYTFAMGLYRQAPGKERELVASITNGGGTYYADSVKGRFTNSRDNAKNTVYLQMNSLKPEDTAVFYCARRVYYWGRYKDEYNYWGQGTQVTVSS",
    "observed": "high polyreactivity"
  },
  {
    "chainSequence": "QVQLEESGGGLVQAGGSLRLSCAASGSTFPYYAMGWYRQAPGKERELVAVITSSGSRTYYADSVKGRFTISRDNAKNTVYLQMNSLKPEDTAVYYCARDTRYYRPNRSQYDYWGQGTQVTVSS",
    "observed": "high polyreactivity"
  },
  {
    "chainSequence": "QVQLVESGRGLVQAGGSLRLSCASSGSTCVRNVMGWYRQAPGKERELVAAISRRGGGTYYADSVKGRFTISRDNAKNTVYLQMNSLKPEDTAVYYCATGSIAAGHYAYNYWGQGTQVTVSS",
    "observed": "high polyreactivity"
  },
  {
    "chainSequence": "QVQLVESGGGLVQAGGSLRLSSAASGFIFNTNAMGWYRQAPGKERELVAAISGGGSTYYAVSVKGRFTLSRDNAKQTVYLQMNSLKPDDTAVYYCAAVPFYRYDYWGQGTQVTVSS",
    "observed": "low polyreactivity"
  },
  {
    "chainSequence": "QVQLVESGGGLVQAGGSLRLSCAASGSIFTYNVMGWYRQAPGKERELVASISWSGGRTYYADSVKGRFTISRDNAKNTVYLQMNSLKPEDTAVYYCNKVRPPVYFPNRDYWGQGTQVTVSS",
    "observed": "low polyreactivity"
  },
  {
    "chainSequence": "QFQLVESGGGLVQAGGSLRISCAATGLIYYVYAMGWYRQAPGKESELVAAIRSGGSTNNADSVKGRFTISRDNAKNTVYLQMNRLKPEDTAVYYCAVDTWYFLFQYGYYQEGDYWGQGTQVTVSS",
    "observed": "low polyreactivity"
  },
  {
    "chainSequence": "QVQLVESGGGLVQAGGSLRLSCAASGSIFGYYAMGWYRQAPGKERELVAAINRDGGSTYYADSVKGRFTISRDNAKNTVYLQMNSLKPEDTAVYYCAAVVRRPGPGRMDYWGQGTQVTVSS",
    "observed": "low polyreactivity"
  },
  {
    "chainSequence": "QGQLVESGGGLVQAGGSLRLSCAASGSIFWYYAMGGYRQAPGKERELVADITSTGGSTYYADSVKGRFTISRDNAKNTVYLQMNSLKPEDTAVYYCAGEASYHGYYSLGYWGQGTQVTVSS",
    "observed": "high polyreactivity"
  },
  {
    "chainSequence": "QVQLVESGGGLVHAGGSLRLSCAASGRIFYYNAMGWYRQAPGKEREFVAAIRSSGGSTYYSDSVKGRFTISRDNAKNTVYLQMNSLKPEDTAVYYCAADFYGLGDYGVDYWGQGTQVTVSS",
    "observed": "low polyreactivity"
  },
  {
    "chainSequence": "QVQLVESGGGLVQAGGSLRLSCAASGFILSDYAMGWYRQAPGKERELVAGINSGGSTYYADSVKGRFTISRDNAKNTVYLQMNSLIPEDTAVYYCAAGVDYWWLVHFLYYYWGQGTQVTVSS",
    "observed": "high polyreactivity"
  },
  {
    "chainSequence": "QVQLVESGGGLVQAGGSLRLSCAASGLTLYRYAMGWYRQAPGKEREFVASISWSGGSTYYADSVKGRFTISRDNANNTVYLQMNSLKPEDTAVYYCATDSDTSQLGYDYWGQGTQVTVSS",
    "observed": "low polyreactivity"
  },
  {
    "chainSequence": "QVQLVESGVGLVQAGGSLRLSCAASGRIFGVYVMGWYRQAPGKERELVAGISPSGGSTYYADSVKGRFTISRDNAKNTVYLQMNSLKPEDTAVYYCAAVLRIRRPRYGYWGQGTQVTVSS",
    "observed": "high polyreactivity"
  },
  {
    "chainSequence": "QVQLVESGGGLVQAGGSLRLTCAASGSIFNRYSMGWYRQATGKERELVAVIRWRDGSTYYADSVKGRFTISRDNEKNTVYLQMNSLKPEDTAVYYCAAVYWGEEYEYWGQGTQVTVSS",
    "observed": "low polyreactivity"
  },
  {
    "chainSequence": "QVQLVESGGGLVQAGGSLRLSCAASGRTFRYYAMGWYRPAPGKERELVAAITISSGSTYYADSVKGRFTISRDNAKNTVYLQMNSLKPEDTAVYYCAATRRYHFDYWGQGTQVTVSS",
    "observed": "high polyreactivity"
  },
  {
    "chainSequence": "QVQLVESGGGLVQAGGSLRLSCAASGFIFWDKAMGWYRQAPGKEWELVAAISKSGTRTYYADSVKGRFTISRDTAKKTVDLQMNSLKPEETAVYYCAAEGSGYDYYYWGQGTQVTVSS",
    "observed": "high polyreactivity"
  },
  {
    "chainSequence": "QVQLEESWGVLVQAGCSLRISCAASGRIFAYNAMGSYRQAPGKERELVAAISWRVGSTYYADSVKGRFSISRDNAKNTVYLQMNILKPEDTAVYYCAVGYYRFGRVLGYYWGQGTQVSVSS",
    "observed": "high polyreactivity"
  },
  {
    "chainSequence": "QVQLVESGGGLVQAGGSLRLSCAASGYIFLRNALGWYRQAPGKERELVAAIRRTGGSTYYADSVKGRFTISRDNAKNTVYLQMNSLKPEDTAVYYCAKRSYTGYEYWGQGTQVTVSS",
    "observed": "low polyreactivity"
  },
  {
    "chainSequence": "QVQLVETGGGLVQAGGSLRLSCAASGSIFYTNAMGWYRQAPGKERELVAVITASGGSTYYADSVKGRFTISRDNAKNTVYLQMNSLKPEDTAVYYCAADPVFNYDYWGQGTQVTVSS",
    "observed": "low polyreactivity"
  }
]
